experiment-description: Inhibition of retinal rod CNGA1/CNGB1 expressed in Xenopus laevis oocytes assessed as blockade of cGMP-induced current at -50 mV holding potential by patch-clamp electrophysiology
Type: cell-based
conditions: oocyte; read-out: Kd(app)
pKd: −log10 of the molar value.
reported-property: pKd

>>> result("CCCCNc1ccc(C(=O)OCCN(C)C)cc1Cl")
4.89

1 = CCCCNc1ccc(C(=O)OCCN(C)C)cc1[N+](=O)[O-]
2 = CCCCCCCCNc1ccc(C(=O)OCCN(C)C)cc1F
3 = CCCCCCCCNc1ccc(C(=O)OCCN(C)C)c(Cl)c1
4 = CCCCCCCCNc1ccc(C(=O)OCCN(C)C)cc1C
5 = CCCCCCCCNc1ccc(C(=O)OCCN(C)C)cc1OC
Order each entry by recorded pKd, climbing from the minimum. Provide the labels, sequenced as the question asks.
1, 5, 4, 2, 3

1 = CCCCNc1ccc(C(=O)OCCN(C)C)cc1OC
2 = CCCCCCCCNc1ccc(C(=O)OCCN(C)C)cc1
3 = CCCCCCCCNc1ccc(C(=O)OCCN(C)C)cc1Cl
Endpoint returns the given compounds ordered by ascending pKd. Respond with the label ranking, as requested.
1, 2, 3

A = CCCCCCCCNc1ccc(C(=O)OCCN(C)C)cc1Br
B = CCCCCCCCNc1ccc(C(=O)OCCN(C)C)cc1[N+](=O)[O-]
C = CCCCNc1ccc(C(=O)OCCN(C)C)cc1C
Provide the items ranked by increasing pKd. # list labels per requested ordering
C, B, A
